# Test system: Putamen
# test description: Drug uptake in anesthetized cynomolgus monkey brain putamen after 12.5 mins postinjection
# Assay type: ADME, organism-based, Macaca fascicularis
# Parameters: unit not given here
# reported conditions: in vivo
measurement type: Drug uptake
I only need the number, thanks.

Looking up O=C(OCC[18F])C1C2CCC(CC1c1cccc(/C=C\Br)c1)N2 (stereo not given) , I found its Drug uptake recorded as 3.69

Field Drug uptake (entry O=C(OCCC[18F])C1C2CCC(CC1c1cccc(/C=C\Br)c1)N2 (stereo not given) ) reads 5.25

Entry O=C(OCCC[18F])C1C2CCC(CC1c1cccc(/C=C\I)c1)N2 (stereo not given) — recorded Drug uptake = 4.08

In plain terms, O=C(OCC[18F])C1C2CCC(CC1c1ccc(/C=C\I)cc1)N2 (stereo not given) has a documented Drug uptake of 2.59

Note to self: Drug uptake recorded for O=C(OCC[18F])C1C2CCC(CC1c1cccc(/C=C\I)c1)N2 (stereo not given) was 3.33
